# Tested on: BXPC-3
# PROTOCOL_TEXT: Human cancer cell line growth inhibition, pancreas-a BXPC-3
# COND: Homo sapiens, BXPC-3
ENDPOINT: GI50 (µg/mL)
Give bare numbers, in µg/mL.

[[record]]
molecule = "O=C1N[C@H]2[C@H](O)[C@H](O)[C@@H](O)[C@H](O)[C@@H]2c2cc3c(c(O)c21)OCO3 [Compound 1a, (+)-Pancratistatin]"
endpoint = "GI50"
unit_symbol = "µg/mL"
measurement = 0.028


--- query ---
Find GI50 (BXPC-3) for the entry CC1(C)O[C@@H]2[C@@H](O)[C@@H](O)[C@@H]3c4cc5c(c(O)c4C(=O)N[C@H]3[C@@H]2O1)OCO5 [Compound 8, 1-Isopancratistatin 3,4-acetonide]
8.8

----------
For each of the compounds below, state its TGI.
# System: SF-295
# PROTOCOL_TEXT: Human cancer cell line growth inhibition, CNS SF-295
# COND: CNS SF-295; total growth inhibition

A selection of reference data follows.
[[record]]
compound = "CC1(C)O[C@@H]2[C@H](O1)[C@@H](O)C=C1c3cc4c(c(O)c3C(=O)N[C@H]12)OCO4 [Compound 3, Narciclasine 3,4-acetonide]"
measurement = ">10 µg/mL"

[[record]]
compound = "CC(=O)Oc1c2c(cc3c1C(=O)NC1C3=CC(OC(C)=O)C3OC(C)(C)OC13)OCO2 (stereo not drawn)"
measurement = ">10 µg/mL"

[[record]]
compound = "CC(=O)OC1C=C2c3cc4c(c(O)c3C(=O)NC2C2OC(C)(C)OC12)OCO4 (stereo not drawn) [Compound 5, 2-Acetoxy-narciclasine 3,4-acetonide]"
measurement = ">10 µg/mL"

[[record]]
compound = "CC1(C)O[C@@H]2[C@@H](O)[C@@H](O)[C@@H]3c4cc5c(c(O)c4C(=O)N[C@H]3[C@@H]2O1)OCO5 [Compound 8, 1-Isopancratistatin 3,4-acetonide]"
measurement = ">10 µg/mL"

[[record]]
compound = "CC1(C)O[C@@H]2[C@@H](O)[C@H]3OC34c3cc5c(c(O)c3C(=O)N[C@H]4[C@@H]2O1)OCO5 (stereo partly drawn) [Compound 10, 1,10b-α-epoxy-narciclasine 3,4-acetonide]"
measurement = ">10 µg/mL"


Go through the list and state TGI for each entry.
1. O=C(OC1C(O)C(O)C(O)C2NC(=O)c3c(cc4c(c3O)OCO4)C21)c1ccccc1 (stereo not drawn) [Compound 13, Pancratistatin 1-Benzoate]
2. O=C1N[C@H]2[C@H](O)[C@H](O)[C@@H](O)[C@H](O)[C@@H]2c2cc3c(c(O)c21)OCO3 [Compound 1a, (+)-Pancratistatin]
3. CC1(C)O[C@H]2[C@@H]3NC(=O)c4c(cc5c(c4O)OCO5)[C@H]3C3OS(=O)(=O)O[C@@H]3[C@H]2O1 (stereo partly drawn)

1. 0.0049 µg/mL
2. 0.091 µg/mL
3. >10 µg/mL

----------
# Test system: SF-295
# PROTOCOL_TEXT: Human cancer cell line growth inhibition, CNS SF-295
# COND: CNS SF-295
ENDPOINT: GI50

A selection of reference data follows.
[[record]]
compound = "CC1(C)O[C@@H]2[C@@H](O)[C@@H](O)[C@H]3c4cc5c(c(O)c4C(=O)N[C@H]3[C@@H]2O1)OCO5"
measurement_target = "SF-295"
measurement = ">10 µg/mL"

[[record]]
compound = "CC(=O)Oc1c2c(cc3c1C(=O)NC1C4OC(C)(C)OC4C(OC(C)=O)C4OC314)OCO2 (stereo not shown)"
measurement_target = "SF-295"
measurement = ">10 µg/mL"

[[record]]
compound = "O=C1N[C@@H]2C(=C[C@H](O)[C@@H](O)[C@H]2O)c2cc3c(c(O)c21)OCO3 [Compound 2, (+)-narciclasine, reference compound]"
measurement_target = "SF-295"
measurement = "0.012 µg/mL"

[[record]]
compound = "CC(=O)Oc1c2c(cc3c1C(=O)NC1C3=CC(OC(C)=O)C3OC(C)(C)OC13)OCO2 (stereo not shown)"
measurement_target = "SF-295"
measurement = ">10 µg/mL"


Go through the list and state GI50 for each entry.
1. O=C(OC1C(O)C(O)C(O)C2NC(=O)c3c(cc4c(c3O)OCO4)C21)c1ccccc1 (stereo not shown) [Compound 13, Pancratistatin 1-Benzoate]
2. CC(=O)OC1C=C2c3cc4c(c(O)c3C(=O)NC2C2OC(C)(C)OC12)OCO4 (stereo not shown) [Compound 5, 2-Acetoxy-narciclasine 3,4-acetonide]
3. COC1c2c([nH]c(=O)c3c(O)c4c(cc23)OCO4)C2OC(C)(C)OC2C1O (stereo not shown) [Compound 7, 1-Methoxy-Isonarciclasine 3,4-acetonide]

0.0013 µg/mL
>10 µg/mL
>10 µg/mL

----------
For each of the compounds below, state its GI50.
# Tested on: DU-145
# PROTOCOL_TEXT: Human cancer cell line growth inhibition, prostate DU-145
# COND: Prostate DU-145

A selection of reference data follows.
[[record]]
compound = "CC(=O)Oc1c2c(cc3c1C(=O)NC1C3=CC(OC(C)=O)C3OC(C)(C)OC13)OCO2 (stereo not drawn)"
measurement = ">10 mg/L"

[[record]]
compound = "CC1(C)O[C@@H]2[C@@H](O)[C@@H](O)[C@H]3c4cc5c(c(O)c4C(=O)N[C@H]3[C@@H]2O1)OCO5"
measurement = ">10 mg/L"

[[record]]
compound = "CC(=O)Oc1c2c(cc3c1C(=O)NC1C4OC(C)(C)OC4C(OC(C)=O)C4OC314)OCO2 (stereo not drawn)"
measurement = ">10 mg/L"

[[record]]
compound = "CC(=O)OC1C=C2c3cc4c(c(O)c3C(=O)NC2C2OC(C)(C)OC12)OCO4 (stereo not drawn) [Compound 5, 2-Acetoxy-narciclasine 3,4-acetonide]"
measurement = ">10 mg/L"


Go through the list and state GI50 for each entry.
1. COC1c2c([nH]c(=O)c3c(O)c4c(cc23)OCO4)C2OC(C)(C)OC2C1O (stereo not drawn) [Compound 7, 1-Methoxy-Isonarciclasine 3,4-acetonide]
2. O=C1N[C@@H]2C(=C[C@H](O)[C@@H](O)[C@H]2O)c2cc3c(c(O)c21)OCO3 [Compound 2, (+)-narciclasine, reference compound]

1: >10 mg/L; 2: 0.0071 mg/L

----------
# System: DU-145
# PROTOCOL_TEXT: Human cancer cell line growth inhibition, prostate DU-145
# COND: Homo sapiens, DU-145
ENDPOINT: GI50 (µg/mL)
Answers are plain numbers, in µg/mL.

[[record]]
molecule = "O=C1N[C@H]2[C@H](O)[C@H](O)[C@@H](O)[C@H](O)[C@@H]2c2cc3c(c(O)c21)OCO3 [Compound 1a, (+)-Pancratistatin]"
measurement = 0.016


--- query ---
Requested read-out: GI50. Entry: CC1(C)O[C@@H]2[C@@H](O)[C@@H](O)[C@@H]3c4cc5c(c(O)c4C(=O)N[C@H]3[C@@H]2O1)OCO5 [Compound 8, 1-Isopancratistatin 3,4-acetonide]
3.8

----------
For each of the compounds below, state its TGI.
# Test system: DU-145
# PROTOCOL_TEXT: Human cancer cell line growth inhibition, prostate DU-145
# COND: Prostate DU-145; total growth inhibition
One number for each entry, in µg/mL.

[[record]]
compound = "O=C1N[C@@H]2C(=C[C@H](O)[C@@H](O)[C@H]2O)c2cc3c(c(O)c21)OCO3 [Compound 2, (+)-narciclasine, reference compound]"
measurement = 0.036

[[record]]
compound = "O=C(OC1C(O)C(O)C(O)C2NC(=O)c3c(cc4c(c3O)OCO4)C21)c1ccccc1 (stereo not drawn) [Compound 13, Pancratistatin 1-Benzoate]"
measurement = 0.0026


--- query ---
Find TGI (DU-145) for the entry O=C1N[C@H]2[C@H](O)[C@H](O)[C@@H](O)[C@H](O)[C@@H]2c2cc3c(c(O)c21)OCO3 [Compound 1a, (+)-Pancratistatin]
0.1

----------
# Tested on: BXPC-3
# PROTOCOL_TEXT: Human cancer cell line growth inhibition, pancreas-a BXPC-3
# COND: Homo sapiens, BXPC-3
ENDPOINT: GI50

[[record]]
compound = "CC1(C)O[C@@H]2[C@@H](O)[C@H]3OC34c3cc5c(c(O)c3C(=O)N[C@H]4[C@@H]2O1)OCO5 (stereo partly drawn) [Compound 10, 1,10b-α-epoxy-narciclasine 3,4-acetonide]"
measurement_target = "BXPC-3"
endpoint = "GI50"
measurement = "> 10 mg/L"

[[record]]
compound = "CC1(C)O[C@@H]2[C@H](O1)[C@@H](O)C=C1c3cc4c(c(O)c3C(=O)N[C@H]12)OCO4 [Compound 3, Narciclasine 3,4-acetonide]"
measurement_target = "BXPC-3"
endpoint = "GI50"
measurement = "> 10 mg/L"


--- query ---
Requested read-out: GI50. Entry: CC1(C)O[C@H]2[C@@H]3NC(=O)c4c(cc5c(c4O)OCO5)[C@H]3C3OS(=O)(=O)O[C@@H]3[C@H]2O1 (stereo partly drawn) [Compound 12]
> 10 mg/L
